Assayed System: Acetylcholinesterase (Homo sapiens)
Give measured pIC50 for each item. Keep answers brief.
Entry type: numeric. Quantity: pIC50, the -log10 of concentration in molar units.

Look up pIC50 with Acetylcholinesterase (Homo sapiens) for this compound: O=C(/C=C/Nc1ccc(Cl)cc1)c1cc2ccccc2o1
5.67

Also need O=C(/C=C/Nc1ccccc1C(=O)O)c1cc2ccccc2o1 , thanks.
5.68

Also need N=C(N)NS(=O)(=O)c1ccc(N/C=C/C(=O)c2cc3ccccc3o2)cc1 , thanks.
6.04

Also need CC(=O)c1ccc(N/C=C/C(=O)c2cc3ccccc3o2)cc1 , thanks.
5.23

Also need O=C(/C=C/Nc1ccc(S(=O)(=O)Nc2ncccn2)cc1)c1cc2ccccc2o1 , thanks.
6.45

Also need O=C(O)c1ccc(N/C=C/C(=O)c2cc3ccccc3o2)cc1 , thanks.
6.10

Also need O=C(/C=C/Nc1ccc(S(=O)(=O)Nc2ccccn2)cc1)c1cc2ccccc2o1 , thanks.
5.97

Also need O=C(/C=C/Nc1cccc(Br)c1)c1cc2ccccc2o1 , thanks.
6.50

Also need NS(=O)(=O)c1ccc(N/C=C/C(=O)c2cc3ccccc3o2)cc1 , thanks.
6.05

Also need Cc1cc(NS(=O)(=O)c2ccc(N/C=C/C(=O)c3cc4ccccc4o3)cc2)no1 , thanks.
6.55

Also need CN(C)/C=C/C(=O)c1cc2ccccc2o1 , thanks.
5.57

====

Method Notes: Antioxidant activity assessed as DPPH radical scavenging activity at 0.01 ug/ml incubated for 1 hr under dark condition by absorbance based assay relative to control
Format: functional
Assay Context: dose 0.01 µg/ml
Metric: Activity (%)
Answer with a number only, understood to be in %.

Given the entry O=C(O)c1ccc(N/C=C/C(=O)c2cc3ccccc3o2)cc1 , report its measured Activity.
5.71

Also need O=C(/C=C/Nc1ccc(F)cc1)c1cc2ccccc2o1 , thanks.
73.9

Also need O=C(/C=C/Nc1ccccc1O)c1cc2ccccc2o1 , thanks.
65.5

Also need CCOC(=O)c1ccc(N/C=C/C(=O)c2cc3ccccc3o2)cc1 , thanks.
21.4

Also need Cc1cccc(N/C=C/C(=O)c2cc3ccccc3o2)c1 , thanks.
12.1

Also need O=C(/C=C/Nc1ccc(S(=O)(=O)Nc2ncccn2)cc1)c1cc2ccccc2o1 , thanks.
5

====

Method Notes: Toxicity in Wistar rat assessed as RBC level in blood at 10 mg/kg,po
Type: organism-based, Erythrocyte
Assay Context: in vivo
Metric: Activity

Given the entry CC(=O)c1cccc(N/C=C/C(=O)c2cc3ccccc3o2)c1 , report its measured Activity.
6.29 10^6/µL

====

Notes on IC50 obtained with Acetylcholinesterase (Homo sapiens, UniProt P22303).
Sequence (P22303 whole entry): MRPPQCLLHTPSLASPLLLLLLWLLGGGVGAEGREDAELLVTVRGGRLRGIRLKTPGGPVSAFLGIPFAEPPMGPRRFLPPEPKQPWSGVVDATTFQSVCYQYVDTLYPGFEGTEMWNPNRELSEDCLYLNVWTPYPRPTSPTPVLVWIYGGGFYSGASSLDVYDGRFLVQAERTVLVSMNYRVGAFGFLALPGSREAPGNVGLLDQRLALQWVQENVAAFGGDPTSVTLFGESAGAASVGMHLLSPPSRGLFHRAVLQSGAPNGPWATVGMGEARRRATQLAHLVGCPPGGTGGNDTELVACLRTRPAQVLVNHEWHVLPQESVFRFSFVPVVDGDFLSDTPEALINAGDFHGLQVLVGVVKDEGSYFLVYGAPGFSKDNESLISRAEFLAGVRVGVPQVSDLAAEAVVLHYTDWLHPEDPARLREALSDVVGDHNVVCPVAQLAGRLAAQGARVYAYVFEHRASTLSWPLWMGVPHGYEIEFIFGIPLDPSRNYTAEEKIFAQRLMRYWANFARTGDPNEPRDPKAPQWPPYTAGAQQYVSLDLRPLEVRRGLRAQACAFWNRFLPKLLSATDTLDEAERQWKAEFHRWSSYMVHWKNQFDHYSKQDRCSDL
Answer with a number only, understood to be in nM.

Given the entry O=C(/C=C/Nc1ccc(Br)cc1)c1cc2ccccc2o1 , report its measured IC50.
1100

Also need Cc1ccc(N/C=C/C(=O)c2cc3ccccc3o2)cc1 , thanks.
397

Also need O=C(O)c1cccc(N/C=C/C(=O)c2cc3ccccc3o2)c1 , thanks.
3770

Also need Cc1cccc(N/C=C/C(=O)c2cc3ccccc3o2)c1 , thanks.
617

Also need O=C(/C=C/Nc1cccc([N+](=O)[O-])c1)c1cc2ccccc2o1 , thanks.
736

Also need CCOC(=O)c1ccc(N/C=C/C(=O)c2cc3ccccc3o2)cc1 , thanks.
2130
